These data points were gathered from paper PMC6289288.

System: Aliivibrio fischeri
assay_protocol: Microtox acute toxicity assay
Format: cell-based
settings: read-out: Microtox EC50 5 min; 5 min exposure, n=3, mean ± SD
endpoint: pEC50
Give bare numbers, as −log10 of the molar value.

{"molecule": "CCCCCCCC(CC(=O)O)OC(=O)CC(CCCCCCC)O[C@@H]1O[C@@H](C)[C@H](O)[C@@H](O)[C@H]1O (stereo partly drawn) [Rha-C10-C10 (S,R)]", "measured_target": "Aliivibrio fischeri", "endpoint": "pEC50", "value": 4.21}
{"molecule": "CCCCCCCC(CC(=O)O)OC(=O)CC(CCCCCCC)O[C@@H]1O[C@@H](C)[C@H](O)[C@@H](O)[C@H]1O (stereo partly drawn) [Rha-C10-C10 (S,S)]", "measured_target": "Aliivibrio fischeri", "endpoint": "pEC50", "value": 4.19}

Consider the additional molecule presented here.
[in] Tell me pEC50 reported for CCCCCCCC(CC(=O)O)OC(=O)CC(CCCCCCC)O[C@@H]1O[C@@H](C)[C@H](O)[C@@H](O)[C@H]1O (stereo partly drawn) [Rha-C10-C10 (R,R)]
[out] 4.10
